# target under test: Homeobox protein SIX1 (Homo sapiens) + Protein phosphatase EYA2 (Homo sapiens) (UniProt Q15475+O00167)
# Sequence (O00167 whole entry, looked up): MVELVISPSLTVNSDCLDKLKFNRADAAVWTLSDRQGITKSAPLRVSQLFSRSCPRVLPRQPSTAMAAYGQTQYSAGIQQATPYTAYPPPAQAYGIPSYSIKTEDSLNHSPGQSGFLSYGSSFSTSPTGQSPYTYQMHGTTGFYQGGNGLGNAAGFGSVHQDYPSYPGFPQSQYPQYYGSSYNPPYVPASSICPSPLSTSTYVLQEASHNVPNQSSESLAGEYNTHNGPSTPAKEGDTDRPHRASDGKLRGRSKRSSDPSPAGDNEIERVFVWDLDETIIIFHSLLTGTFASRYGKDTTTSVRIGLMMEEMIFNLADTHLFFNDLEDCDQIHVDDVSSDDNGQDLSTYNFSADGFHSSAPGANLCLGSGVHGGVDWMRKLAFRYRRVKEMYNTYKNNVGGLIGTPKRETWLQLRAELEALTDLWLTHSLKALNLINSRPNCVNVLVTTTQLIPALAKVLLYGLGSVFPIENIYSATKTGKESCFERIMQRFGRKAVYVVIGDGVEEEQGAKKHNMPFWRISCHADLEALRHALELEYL
# Sequence (Q15475 whole entry, looked up): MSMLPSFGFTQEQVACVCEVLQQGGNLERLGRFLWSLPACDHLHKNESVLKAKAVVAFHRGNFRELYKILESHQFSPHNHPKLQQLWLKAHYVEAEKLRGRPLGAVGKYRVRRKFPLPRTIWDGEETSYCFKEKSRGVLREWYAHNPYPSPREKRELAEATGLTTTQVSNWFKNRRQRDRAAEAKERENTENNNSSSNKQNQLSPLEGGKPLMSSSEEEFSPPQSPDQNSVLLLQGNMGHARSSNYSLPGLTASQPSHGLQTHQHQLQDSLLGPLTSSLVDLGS
# assay procedure: qHTS Assay for Inhibitors of the Six1/Eya2 Interaction
# test settings: AlphaScreen GST-Six1/His-Eya2 binding, biochemical
About 2,000 (0.56%) of roughly 360,000 compounds were called active. Another 2% or so got no clear call; they are omitted. No stated cut-off is given here; in the data, active means activity change below about -65%; inconclusive means mostly about -30% to -63%; inactive means weaker than that. This is one part of a sample in which actives are shown more often than they occur.
In this exercise, the only acceptable responses are Y = active, N = inactive

Input: # fetch the recorded call for CC1Cc2[nH][nH]c(=O)c2C(C2CC2)O1 (stereo unspecified) here
Output: N

Input: # fetch the recorded call for `COC(=O)c1ccc(Nc2ncnc3sccc23)cc1` here
Output: N

Input: # fetch the recorded call for `O=C(C[C@H]1CC[C@H]2[C@@H](COC[C@H](O)CN2C(=O)c2ccccn2)O1)N1CCN(c2ccccc2)CC1` here
Output: N

Input: # fetch the recorded call for O=S1(=O)CC(N2CCN(Cc3ccccc3F)CC2)CN1Cc1cn(Cc2cccc(C(F)(F)F)c2)nn1 (stereo unspecified) here
Output: N

Input: # fetch the recorded call for `CCOC(=O)c1ccc(N/C(=N/S(=O)(=O)c2ccccc2)c2ccccc2)cc1` here
Output: N

Input: # fetch the recorded call for `Oc1cccc(/C=N/Nc2ccc(Cl)nn2)c1O` here
Output: Y

Input: # fetch the recorded call for `CCOC(=O)c1nc(Nc2ccc(C(=O)OC)cc2)c2ccccc2n1` here
Output: Y

Input: # fetch the recorded call for `Cc1cc(Br)cn2c(Cc3ccccc3C(F)(F)F)c(C3CCCCC3)nc12` here
Output: N

Input: # fetch the recorded call for CC1(C(=O)NCc2ccccc2)CN(S(C)(=O)=O)CC(=O)N1CC(F)(F)F (stereo unspecified) here
Output: N

Input: # fetch the recorded call for CCOc1ccc(C(CCc2ccccc2)NC(=O)c2ccc(OC)c(OC)c2)cc1OCC (stereo unspecified) here
Output: N

Input: # fetch the recorded call for CCCCC(=O)NC(c1ccc(OC)c(OC)c1)c1ccc2cccnc2c1O (stereo unspecified) here
Output: Y

Input: # fetch the recorded call for `COC(=O)C1=C(C)NC(=O)/C1=C/c1ccc(CNS(=O)(=O)c2ccc(C)cc2)o1` here
Output: N

Input: # fetch the recorded call for `CCOC(=O)c1cc2cc(OC)ccc2n1C1CCN(C)CC1` here
Output: N

Input: # fetch the recorded call for `C=CCn1c(COc2cccc3cccnc23)nnc1SCC(=O)OC` here
Output: N

Input: # fetch the recorded call for CC(=O)N1CCCc2cc(S(=O)(=O)N3CCCC(C(=O)N4CCN(c5cccc(Cl)c5)CC4)C3)ccc21 (stereo unspecified) here
Output: N

Input: # fetch the recorded call for `C/C(=N\Nc1ccc(Cl)nn1)c1ccccc1O` here
Output: Y

Input: # fetch the recorded call for O=C(Nc1ccc(F)cc1)C(CCc1ccccc1)N1CCN(CC(=O)N2CCCC2)CC1 (stereo unspecified) here
Output: N

Input: # fetch the recorded call for `O=[N+]([O-])c1ccc2nc(-c3ccccn3)[nH]c2c1` here
Output: Y

Input: # fetch the recorded call for Cc1ccccc1CN1C(=O)CSCC1(C)C(=O)Nc1c(C)cccc1C (stereo unspecified) here
Output: N

Input: # fetch the recorded call for `CC(C)(C)C(=O)c1c(N)[nH]c(C(=O)c2ccccc2)c1-c1ccc(F)cc1` here
Output: N

Input: # fetch the recorded call for `Cc1ccc(-c2ccc(C3=CC(=O)CC(C)(C)C3=O)cc2)cc1` here
Output: N
